Task for the reader: assign each of the following compounds its reported TGI.
- Test system: SK-OV-3 ovarian
- methodSummary: NCI tumour cell line growth inhibition, 48 h

compound	resultValue
Cc1cc2[nH]c(Cl)c(/C=C3\C(=O)Nc4ccccc43)c2cc1O	19 µM
Clc1ccc(-c2cc(-c3cc(-c4ccc(Cl)cc4)n[nH]3)[nH]n2)cc1	> 100 µM
Cn1c(O)c(C2=Nc3ccccc3C2=O)c2ccccc21	> 100 µM
Cc1ccc([N+](=O)[O-])cc1S(=O)(=O)Nc1ccc(C(=O)/C=C/c2cccs2)cc1	> 100 µM

Answer for every listed entry: what is its TGI? The entries follow.
1. CCc1ccc(CNCC(O)c2ccccc2)cc1 (stereo unspecified)
2. CCCc1onc(CCC(=O)N(Cc2ccccc2)Cc2ccccc2)c1CC
3. Oc1ccc2ccccc2c1CN(Cc1c(O)ccc2ccccc12)C1CCCCC1
4. COC(=O)[C@H](NC(=O)OC(C)(C)C)[C@H]1COC(C)(C)O1

1. > 100 µM
2. > 100 µM
3. > 100 µM
4. > 100 µM

Answer for every listed entry: what is its TGI? The entries follow.
1. O=c1[nH]c(=O)n(C2CC(O)C(CO)O2)c2nc3cc4ccccc4cc3nc12 (stereo unspecified)
2. COc1cc2ncn(-c3cc(O[C@H](C)c4ccccc4Cl)c(C(N)=O)s3)c2cc1OC
3. O=S(=O)(O)SC/C=C\CSS(=O)(=O)O

1. > 100 µM
2. 12.7 µM
3. > 100 µM
